System: P-gp
Test: Bidirectional transport of digoxin across monolayers with and without zosuquidar
Format: in vitro ADME
Settings: human, with zosuquidar (concentration not stated), gradient cross-linked scaffold; in the presence of P-gp inhibitor zosuquidar; n = 3; read-out: efflux ratio Papp(B-L)/Papp(L-B)
READOUT: efflux ratio at 3 h
// print number alone

[ask] Need efflux ratio at 3 h, item C[C@H]1O[C@@H](O[C@H]2[C@@H](O)C[C@H](O[C@H]3[C@@H](O)C[C@H](O[C@H]4CC[C@@]5(C)[C@H](CC[C@@H]6[C@@H]5C[C@@H](O)[C@]5(C)[C@@H](C7=CC(=O)OC7)CC[C@]65O)C4)O[C@@H]3C)O[C@@H]2C)C[C@H](O)[C@@H]1O [digoxin]
[reply] 1.4

###

Target: BCRP (Homo sapiens, UniProt Q9UNQ0)
Construct: endogenous in cells; host or cells: primary human small intestinal epithelial cell monolayers on a gradient cross-linked or conventional collagen scaffold
Sequence (Q9UNQ0 1-655): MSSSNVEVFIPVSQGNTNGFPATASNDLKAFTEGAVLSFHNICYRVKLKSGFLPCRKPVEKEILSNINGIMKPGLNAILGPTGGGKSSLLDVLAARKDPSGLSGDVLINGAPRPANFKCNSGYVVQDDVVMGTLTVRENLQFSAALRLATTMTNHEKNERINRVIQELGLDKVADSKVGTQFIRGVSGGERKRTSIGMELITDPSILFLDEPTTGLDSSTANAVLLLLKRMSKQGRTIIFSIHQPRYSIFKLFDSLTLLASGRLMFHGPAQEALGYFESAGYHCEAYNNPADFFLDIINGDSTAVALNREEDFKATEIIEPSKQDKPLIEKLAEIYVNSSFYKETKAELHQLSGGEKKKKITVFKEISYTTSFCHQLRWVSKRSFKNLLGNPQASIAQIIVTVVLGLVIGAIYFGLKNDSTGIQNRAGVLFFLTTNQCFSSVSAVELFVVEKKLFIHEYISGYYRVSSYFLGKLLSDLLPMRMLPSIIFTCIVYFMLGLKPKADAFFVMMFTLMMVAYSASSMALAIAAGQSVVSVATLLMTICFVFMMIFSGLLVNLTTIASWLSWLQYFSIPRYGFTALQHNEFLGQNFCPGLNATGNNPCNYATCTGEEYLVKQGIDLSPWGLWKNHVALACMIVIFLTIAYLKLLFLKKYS
Assay: Bidirectional transport of prazosin across monolayers with and without Ko143
Assay type: in vitro ADME
Details: with Ko143 (concentration not stated), gradient cross-linked scaffold, with BCRP inhibitor Ko143, read-out: efflux ratio Papp(B-L)/Papp(L-B)
Protocol: All transport assays were performed by adding LY ([…]) and the drug to the luminal or basal reservoirs of the monolayer (n = 3). Samples were collected after 3 h. LY was added to ensure that monolayer integrity remained intact throughout the assay. Additionally, TEER was measured before and after the assay to further verify that monolayer integrity remained constant throughout the assay. […]
READOUT: efflux ratio at 3 h
// print number alone

[ask] Param readout = efflux ratio at 3 h; param system = BCRP (Homo sapiens, UniProt Q9UNQ0); param query = COc1cc2nc(N3CCN(C(=O)c4ccco4)CC3)nc(N)c2cc1OC [prazosin] ; response: value
[reply] 1.7

###

Biological target: BCRP (Homo sapiens)
Construct: endogenous in cells; host or cells: primary human small intestinal epithelial cell monolayers on a gradient cross-linked or conventional collagen scaffold
Test: Bidirectional transport of prazosin across monolayers with and without Ko143
Assay type: in vitro ADME
Conditions: gradient cross-linked scaffold, no inhibitor, read-out: efflux ratio Papp(B-L)/Papp(L-B)
READOUT: efflux ratio at 3 h
// print number alone

[ask] Need efflux ratio at 3 h, item `COc1cc2nc(N3CCN(C(=O)c4ccco4)CC3)nc(N)c2cc1OC`
[reply] 6.5
